Each item that follows carries a reported 2PT.
ASSAY_SUMMARY: Anticoagulant activity in rabbit plasma assessed as increase in prothrombin time
Format: functional, Oryctolagus cuniculus
REPORTED_PROPERTY: 2PT (µM)

>>> obs_value("CCN(CC)CCCn1cnnc1-c1nn(-c2ccc(OC)cc2)c2c1CCN(c1ccc(N3CCCCC3=O)cc1)C2=O")
6.1
>>> obs_value("COc1ccc(-n2nc(-c3n[nH]c(C4CC4)n3)c3c2C(=O)N(c2ccc(N4CCCCC4=O)cc2)CC3)cc1")
4.9
>>> obs_value("COc1ccc(-n2nc(-c3n[nH]c(=O)n3-c3ccccc3)c3c2C(=O)N(c2ccc(N4CCCCC4=O)cc2)CC3)cc1")
13.3
>>> obs_value("O=C1CCCCN1c1ccc(N2CCc3c(-c4nc[nH]n4)nn(-c4ccc(Br)cc4)c3C2=O)cc1")
7.9
